Target: Prostaglandin G/H synthase 1 (Ovis aries)
Sequence (P05979 whole entry): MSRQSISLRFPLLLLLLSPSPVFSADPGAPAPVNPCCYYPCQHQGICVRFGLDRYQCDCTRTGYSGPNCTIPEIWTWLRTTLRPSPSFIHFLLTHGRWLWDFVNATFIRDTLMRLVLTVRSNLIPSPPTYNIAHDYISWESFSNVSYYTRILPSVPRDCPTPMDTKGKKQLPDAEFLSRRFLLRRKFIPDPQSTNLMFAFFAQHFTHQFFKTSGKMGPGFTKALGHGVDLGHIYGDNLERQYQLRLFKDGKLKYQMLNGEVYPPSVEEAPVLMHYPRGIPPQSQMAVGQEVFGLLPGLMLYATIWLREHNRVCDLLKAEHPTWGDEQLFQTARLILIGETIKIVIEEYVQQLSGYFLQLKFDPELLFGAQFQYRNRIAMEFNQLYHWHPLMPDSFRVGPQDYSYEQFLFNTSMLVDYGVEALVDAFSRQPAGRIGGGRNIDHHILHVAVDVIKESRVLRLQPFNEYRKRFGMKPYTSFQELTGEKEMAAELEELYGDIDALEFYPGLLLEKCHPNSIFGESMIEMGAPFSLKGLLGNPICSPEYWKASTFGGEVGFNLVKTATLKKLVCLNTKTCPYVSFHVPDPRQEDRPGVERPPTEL
Measured Metric: IC50 (µM)

I: NS(=O)(=O)c1ccc(C#Cc2ccc(=O)n(C(F)F)c2)cc1
II: CS(=O)(=O)c1cccc(C#Cc2ccc(=O)n(C(F)F)c2)c1
III: CS(=O)(=O)c1ccc(C#Cc2ccc(=O)n(C(F)F)c2)cc1
Ascending sort, IC50. Form field (ranking): labels in requested order. I, III, II
